Biological target: MAGI2_4, Q86UL8
Sequence (Q86UL8 772-865): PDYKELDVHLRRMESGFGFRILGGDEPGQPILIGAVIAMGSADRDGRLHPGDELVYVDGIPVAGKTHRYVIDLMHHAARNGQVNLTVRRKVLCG
Experiment: holdup assay
Parameters: key: below the threshold = too weak to quantify, mostly under pKd 3.1 to 4
Conditions: plain residues with an end cap or a label only (N-terminal biotin on a linker: ado-ado)
parameter: pKd

INSERT INTO measurements (binder, endpoint_result) VALUES
  ('DDEDRLVIEI [ZNF831, Q5JPB2]', 'below the threshold'),
  ('KKAPTNEFYA [SDC4, P31431]', 'below the threshold'),
  ('SKENVQETQI [LRRC4B, Q9NT99]', 'below the threshold'),
  ('DTTVPESEDL [MYOZ2, Q9NPC6]', 'below the threshold'),
  ('IKAIVDLTGL [TRAF2, Q12933]', 'below the threshold'),
  ('VRNLPESEEL [MYOZ3, Q8TDC0]', 'below the threshold'),
  ('EALLQMESVA [CAVIN3, Q969G5]', 'below the threshold'),
  ('QMNQTLPVQV [EPHB3, P54753]', 3.7),
  ('VNKSKLLTDV [KCNA1, Q09470]', 3.79),
  ('GQEEQVTTRL [TRPC5, Q9UL62]', 'below the threshold'),
  ('RRISSLESEV [GRIN2C, Q14957]', 3.95),
  ('DDPSTAETVL [ABCA7, Q8IZY2]', 'below the threshold'),
  ('LPHPHSTTRV [NLGN2, Q8NFZ4]', 3.72),
  ('VKPQVSESKL [ACOT8, O14734]', 'below the threshold'),
  ('RHGSCVETSL [TMEM151B, Q8IW70]', 'below the threshold'),
  ('SARSRLSSNL [HCN2, Q9UL51]', 'below the threshold'),
  ('TSSMRGMDAV [RSRC2, Q7L4I2]', 'below the threshold'),
  ('LKVPPEERLI [CRB2, Q5IJ48]', 'below the threshold'),
  ('LRSPRTPSEV [OR10G3, Q8NGC4]', 'below the threshold'),
  ('QKNRKAQEDL [CES3, Q6UWW8]', 'below the threshold'),
  ('GSGAVEMESV [AQP6, Q13520]', 'below the threshold'),
  ('YLEPVLSSEL [ATP2A2, P16615;P16615-3]', 'below the threshold'),
  ('MLSKQSESAI [FLVCR1, Q9Y5Y0]', 3.54),
  ('QPCFNKLFPL [LPXN, O60711]', 'below the threshold'),
  ('EKKTLIGIKL [GOT1L1, Q8NHS2]', 'below the threshold'),
  ('LSEFKAMDSI [CTNNA1, P35221]', 'below the threshold'),
  ('KKMPSIESDV [GRIN2A, Q12879]', 'below the threshold'),
  ('SGSLKLMTTV [DACT1, Q9NYF0]', 4.92),
  ('HSGYRLNDYV [CLDN14, O95500]', 3.94),
  ('VYPNAKVELV [PDLIM4_iso2, P50479]', 3.56),
  ('GNSVLKSTQF [SLC22A12, Q96S37]', 3.79),
  ('SKSNFGSEPL [KIF17, Q9P2E2]', 'below the threshold');
